Please find below pKi measurements for Matrix metalloproteinase-14 (Homo sapiens, UniProt P50281), combined from several publications.
Convention used: pKi is expressed as -log10 of the molar concentration.

Some solved cases for reference:
INSERT INTO assay_data (molecule, assay_result) VALUES
  ('NC(=O)C(Cc1c[nH]c2ccccc12)NC(=O)C(CCCc1ccccc1)CP(=O)(O)C(Cc1ccccc1)NC(=O)CNc1cc(Cl)ccc1O (centres undefined)', 7.20),
  ('NC(=O)C(Cc1c[nH]c2ccccc12)NC(=O)C(CCCc1ccccc1)CP(=O)(O)C(Cc1ccccc1)NC(=O)CNc1ccccc1 (centres undefined)', 7.14),
  ('O=C(NO)C(=O)NCCc1c[nH]c2ccc(Cl)cc12', 4.46);

Could you share which pKi value was measured for `CN(C)C(=O)[C@@H](Cc1ccc(OCc2ccccc2)cc1)NC(=O)[C@H](Cc1ccccc1)NC(=O)C(=O)NO` ?
5.85

Then this molecule: NC(=O)C(Cc1c[nH]c2ccccc12)NC(=O)C(Cc1ccc2ccccc2c1)CP(=O)(O)C(Cc1ccccc1)NC(=O)OCc1ccccc1 (centres undefined)
5.87

Then this molecule: CC(C)CC(CP(=O)(O)C(Cc1ccccc1)NC(=O)OCc1ccccc1)C(=O)NC(Cc1c[nH]c2ccccc12)C(N)=O (centres undefined)
6.72

Then this molecule: NC(=O)C(Cc1c[nH]c2ccccc12)NC(=O)C(CSc1ccccc1Br)CP(=O)(O)C(Cc1ccccc1)NC(=O)OCc1ccccc1 (centres undefined)
4.52

Then this molecule: COc1ccc(CSCC(CP(=O)(O)C(Cc2ccccc2)NC(=O)OCc2ccccc2)C(=O)NC(Cc2c[nH]c3ccccc23)C(N)=O)cc1 (centres undefined)
7.66

Then this molecule: NC(=O)C(Cc1c[nH]c2ccccc12)NC(=O)C(CCCc1ccccc1)CP(=O)(O)C(Cc1ccccc1)NC(=O)c1cc2cc(Cl)cc(Cl)c2oc1=O (centres undefined)
6.66

Then this molecule: CC(C)CC(NC(=O)OCc1ccccc1)C(=O)NC(Cc1ccccc1)P(=O)(O)CC(CCCc1ccccc1)C(=O)NC(Cc1c[nH]c2ccccc12)C(N)=O (centres undefined)
7.28

Then this molecule: O=C(NCCc1cccs1)[C@H](O)[C@@H](O)C(=O)N1CCCC1c1cccc(Cl)c1 (some centres undefined)
4.96
